Origin of measurements: ChEMBL document CHEMBL1681747

Assay Info: Tmax in BALB/c mouse at 5 mg/kg
Format: ADME, organism-based
Parameters: dose 5 mg/kg
Condition Info: in vivo
Assay Endpoint: Tmax (min)

Compound	Tmax [min]
C=C1C[C@@H]2CC[C@@]34C[C@H]5O[C@H]6[C@@H](O3)[C@H]3O[C@H](CC[C@@H]3O[C@H]6[C@H]5O4)CC(=O)C[C@@H]3[C@@H](OC)[C@@H](C[C@@H](CN4CCOCC4)OC)O[C@H]3C[C@H]3O[C@@H](CC[C@@H]1O2)C[C@@H](C)C3=C	5
C=C1C[C@@H]2CC[C@@]34C[C@H]5O[C@H]6[C@@H](O3)[C@H]3O[C@H](CC[C@@H]3O[C@H]6[C@H]5O4)CC(=O)C[C@@H]3[C@@H](OC)[C@@H](CCNCC(F)F)O[C@H]3C[C@H]3O[C@@H](CC[C@@H]1O2)C[C@@H](C)C3=C	5
C=C1C[C@@H]2CC[C@@]34C[C@H]5O[C@H]6[C@@H](O3)[C@H]3O[C@H](CC[C@@H]3O[C@H]6[C@H]5O4)CC(=O)C[C@@H]3[C@@H](OC)[C@@H](CC(=O)CN4CCOCC4)O[C@H]3C[C@H]3O[C@@H](CC[C@@H]1O2)C[C@@H](C)C3=C	5
